Tested on: antibodies in sera from SARS patients (sera 1a, 1b, 2, 6, 37, 62, London, SARS-yellow, SARS-green)
Type: binding, human
Design: unit not given here
endpoint: Binding of serum 37 to linear peptides of protein N of SARS-CoV Urbani

sequence_code	recorded_number
PSASAFFGMSRIGME	0.6
APSASAFFGMSRIGM	0.5
VRGGDGKMKELSPRW	0.6
RNPNNNAATVLQLPQ	0.6
YYRRATRRVRGGDGK	0.7

====

Catalogue of Binding of Control serum LUMC to looped peptides readings, one per entry.
Tested on: control sera (pooled serum of ten healthy LUMC hospital workers; commercial negative donor pooled serum from the Dutch bloodbank)
Assay type: binding, human
Set-up: unit not given here
endpoint: Binding of Control serum LUMC to looped peptides

sequence_code	recorded_number
TQGNFGDQDLIRQGT	0.8
YYRRATRRVRGGDGK	0.2
LCAYCCNIVNVSLVK	0.7
QFMMSRRRLLACLCK	0.4
HIGTRNPNNNAATVL	1.2
PAGGALIARCWYLHE	0.5
LLVAAGMEAQFLYLY	0.6
GGGETALALLLLDRL	0.8
KDYVVVHGYFTEVYY	0.5
GTRHTYQLRARSVSP	0.8
FTSCELYHYQECVRG	0.8
SSSLTSLLKTHRMCK	0.4
GALNTPKDHIGTRNP	0.4
RNPNNNAATVLQLPQ	0.9
VAAGMEAQFLYLYAL	0.8
FNKLVKDPPNVQIHT	0.7
GYFTEVYYQLESTQI	0.7
MSRRRLLACLCKHKK	0.2
ADNKFALTCTSTHFA	0.9
ALNKRWQLALYKGFQ	0.8
ELRFPRGQGVPINTN	0.7
VVTEGDGISTPKLKE	0.3
LQELLIQQWIQFMMS	0.6
DPAGGALIARCWYLH	0.6
VTIYSHLLLVAAGME	0.6
HRMCKYTQSTALQEL	0.6
WYFYYLGTGPEASLP	0.6
VLLKEPCPSGTYEGN	0.8
SRNSTPGSSRGNSPA	0.7
AEGSRGGSQASSRSS	0.8
KEELRFPRGQGVPIN	0.7
QIGGYSEDRHSGVKD	0.4
YNTRGNTYSTAWLCA	0.5
VTEGDGISTPKLKED	0.3
RGPEQTQGNFGDQDL	0.6
SRGNSPARMASGGGE	0.4
GDGKMKELSPRWYFY	0.8
AGGALIARCWYLHEG	0.4
CINACRIIMRCWLCW	0.7
FAFACADGTRHTYQL	0.7

====

System: antibodies in sera from SARS patients (sera 1a, 1b, 2, 6, 37, 62, London, SARS-yellow, SARS-green)
Format: binding, human
Design: unit not given here
endpoint: Binding of serum 62 to looped/cyclic peptides of protein N of SARS-CoV Urbani

sequence_code	recorded_number
ELRFPRGQGVPINTN	0.6
ETALALLLLDRLNQL	0.6
QGTDYKHWPQIAQFA	0.6
SKKPRQKRTATKQYN	0.6
TQGNFGDQDLIRQGT	0.7
YYLGTGPEASLPYGA	0.7
PKGFYAEGSRGGSQA	0.5
GETALALLLLDRLNQ	0.7
QRRPQGLPNNTASWF	0.6
QFAPSASAFFGMSRI	0.7
LLPAADMDDFSRQLQ	0.2
GGGETALALLLLDRL	0.7

# credit: patent US20070128217A1
